Measured IC50 values are reported for all entries that follow.
# measured target: human FASN (Homo sapiens)
# Construct: was purified from SKBR3 cells using procedures modified from those in Jayakumar et al; endogenous in cells; host or cells: SKBR3 human breast cancer cells (ATCC); Endogenous enzyme purified by ammonium sulfate precipitation and a mono Q column
# assay info: FASN NADPH Consumption Assay
# Format: biochemical
# test parameters: human FASN purified from SKBR3 cells; starred symbols

Sample answers from the record:
CCN(C(=O)n1nnn(-c2c(Cl)cccc2Cl)c1=O)c1cccc(C#N)c1 :: 60 to 250 nM
CCN(C(=O)n1nnn(-c2c(F)cccc2F)c1=O)c1ccc([N+](=O)[O-])cc1F :: 60 to 250 nM

Now look at this entry.
Lab note: Cc1nonc1NC(=O)CN(C(=O)n1nnn(-c2c(Cl)cccc2Cl)c1=O)C1CCCCC1 gave IC50 of > 10000 nM

---

Measured IC50 values are reported for all entries that follow.
# measured target: human FASN (Homo sapiens)
# Construct: was purified from SKBR3 cells using procedures modified from those in Jayakumar et al; endogenous in cells; host or cells: SKBR3 human breast cancer cells (ATCC); Endogenous enzyme purified by ammonium sulfate precipitation and a mono Q column
# assay info: FASN Scintillation Proximity Flashplate Assay
# Type: biochemical
# test parameters: human FASN purified from SKBR3 cells; unstarred symbols

COc1ccc(N(C(=O)n2nnn(-c3cccc4nsnc34)c2=O)C2CCCCC2)cc1C(=O)O :: 15 to 100 nM

Now look at this entry.
Lab note: COc1ccc(N(C(=O)n2nnn(-c3c(F)cccc3F)c2=O)C(C)C)cc1C(=O)OCc1ccccc1 gave IC50 of < 15 nM

---

# measured target: human FASN (Homo sapiens, UniProt P49327)
# Construct: was purified from SKBR3 cells using procedures modified from those in Jayakumar et al; endogenous in cells; host or cells: SKBR3 human breast cancer cells (ATCC); Endogenous enzyme purified by ammonium sulfate precipitation and a mono Q column
# Sequence (P49327 whole entry): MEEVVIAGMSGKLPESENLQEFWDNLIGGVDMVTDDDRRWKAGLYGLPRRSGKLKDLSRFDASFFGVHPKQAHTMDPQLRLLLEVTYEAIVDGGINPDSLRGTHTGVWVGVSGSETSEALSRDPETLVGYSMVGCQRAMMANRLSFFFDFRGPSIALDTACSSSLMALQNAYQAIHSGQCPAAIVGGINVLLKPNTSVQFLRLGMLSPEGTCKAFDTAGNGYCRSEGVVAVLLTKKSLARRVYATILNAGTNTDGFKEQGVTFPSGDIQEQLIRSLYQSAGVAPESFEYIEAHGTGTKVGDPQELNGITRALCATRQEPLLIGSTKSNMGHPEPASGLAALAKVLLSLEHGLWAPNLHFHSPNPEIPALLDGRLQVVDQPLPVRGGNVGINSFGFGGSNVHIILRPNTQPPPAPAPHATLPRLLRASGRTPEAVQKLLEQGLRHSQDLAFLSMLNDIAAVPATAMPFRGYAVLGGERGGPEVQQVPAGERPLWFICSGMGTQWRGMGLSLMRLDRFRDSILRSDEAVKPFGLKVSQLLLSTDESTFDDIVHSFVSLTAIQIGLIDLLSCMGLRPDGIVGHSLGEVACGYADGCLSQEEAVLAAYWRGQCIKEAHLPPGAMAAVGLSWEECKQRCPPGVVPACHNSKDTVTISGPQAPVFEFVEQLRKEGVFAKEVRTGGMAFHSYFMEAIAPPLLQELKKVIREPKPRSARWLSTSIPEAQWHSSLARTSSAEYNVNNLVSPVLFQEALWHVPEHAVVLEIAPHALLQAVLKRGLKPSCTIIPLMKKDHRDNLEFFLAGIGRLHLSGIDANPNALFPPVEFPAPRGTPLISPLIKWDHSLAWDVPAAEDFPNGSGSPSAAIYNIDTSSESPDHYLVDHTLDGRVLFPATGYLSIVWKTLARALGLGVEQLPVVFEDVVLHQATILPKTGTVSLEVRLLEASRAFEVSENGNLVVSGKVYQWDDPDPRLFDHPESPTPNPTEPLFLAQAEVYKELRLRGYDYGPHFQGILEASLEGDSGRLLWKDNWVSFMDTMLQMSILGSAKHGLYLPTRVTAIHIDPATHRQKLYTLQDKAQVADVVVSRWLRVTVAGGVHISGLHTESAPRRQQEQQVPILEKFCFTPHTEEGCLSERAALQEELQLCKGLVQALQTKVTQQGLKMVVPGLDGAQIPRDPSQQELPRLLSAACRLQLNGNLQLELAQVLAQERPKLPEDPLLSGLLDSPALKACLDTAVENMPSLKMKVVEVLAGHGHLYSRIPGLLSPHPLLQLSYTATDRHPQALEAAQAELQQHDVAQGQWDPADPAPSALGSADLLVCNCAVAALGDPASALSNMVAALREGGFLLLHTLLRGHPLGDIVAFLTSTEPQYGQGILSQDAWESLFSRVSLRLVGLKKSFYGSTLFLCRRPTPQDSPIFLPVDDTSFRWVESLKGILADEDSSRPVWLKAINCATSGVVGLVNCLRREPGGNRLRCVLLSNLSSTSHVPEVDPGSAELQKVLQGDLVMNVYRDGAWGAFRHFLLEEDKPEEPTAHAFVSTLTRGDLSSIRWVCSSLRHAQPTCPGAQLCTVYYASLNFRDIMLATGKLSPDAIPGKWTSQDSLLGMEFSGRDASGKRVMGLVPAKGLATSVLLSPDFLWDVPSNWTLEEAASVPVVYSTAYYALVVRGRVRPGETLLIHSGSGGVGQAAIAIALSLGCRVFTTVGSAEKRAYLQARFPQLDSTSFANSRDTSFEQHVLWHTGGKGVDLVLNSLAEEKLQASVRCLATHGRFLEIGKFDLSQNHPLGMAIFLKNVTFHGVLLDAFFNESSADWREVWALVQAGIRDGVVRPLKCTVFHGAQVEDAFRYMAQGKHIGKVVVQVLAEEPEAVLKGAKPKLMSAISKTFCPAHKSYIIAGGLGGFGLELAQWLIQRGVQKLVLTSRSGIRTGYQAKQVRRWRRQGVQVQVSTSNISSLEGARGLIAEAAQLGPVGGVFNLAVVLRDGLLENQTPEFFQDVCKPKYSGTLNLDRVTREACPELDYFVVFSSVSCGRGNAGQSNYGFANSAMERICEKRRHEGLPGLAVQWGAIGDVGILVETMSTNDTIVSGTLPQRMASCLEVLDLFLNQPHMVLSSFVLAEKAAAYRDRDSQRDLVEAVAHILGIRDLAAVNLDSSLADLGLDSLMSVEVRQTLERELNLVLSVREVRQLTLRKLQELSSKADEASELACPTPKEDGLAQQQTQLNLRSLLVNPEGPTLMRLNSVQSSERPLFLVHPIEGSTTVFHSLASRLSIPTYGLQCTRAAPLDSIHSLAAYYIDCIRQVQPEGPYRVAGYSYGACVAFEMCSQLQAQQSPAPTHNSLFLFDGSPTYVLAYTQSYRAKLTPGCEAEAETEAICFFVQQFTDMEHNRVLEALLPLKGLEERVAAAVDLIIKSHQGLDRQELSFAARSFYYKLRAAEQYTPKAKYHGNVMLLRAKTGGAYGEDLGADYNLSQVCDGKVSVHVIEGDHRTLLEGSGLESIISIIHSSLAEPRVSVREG
# assay info: FASN NADPH Consumption Assay
# Type: biochemical
# test parameters: human FASN purified from SKBR3 cells; starred symbols
pIC50: −log10 of the molar value.
Measured pIC50 values are reported for all entries that follow.

CCN(C(=O)n1nnn(-c2c(C)cccc2Cl)c1=O)C1CCCCC1 :: 5.00 to 6.00
CCNC(=O)n1nnn(-c2ccccc2)c1=O :: < 5.00
O=C(N1Cc2ccccc2Cc2ccccc21)n1nnn(-c2c(F)cccc2F)c1=O :: 6.60 to 7.22
CCN(C(=O)n1nnn(-c2c(Cl)cccc2Cl)c1=O)c1ccc([N+](=O)[O-])cc1 :: 6.60 to 7.22
CCN(C(=O)n1nnn(-c2cccc3nsnc23)c1=O)C1CCCCC1 :: 5.00 to 6.00
CCN(C(=O)n1nnn(-c2c(Cl)cccc2Cl)c1=O)c1ccccc1 :: 6.00 to 6.60
CCN(C(=O)n1nnn(-c2ccccc2OC)c1=O)c1cc(C(=O)O)ccc1OC(C)C :: 5.00 to 6.00
CN(C(=O)n1nnn(-c2ccccc2Cl)c1=O)c1ccccc1 :: 6.00 to 6.60

Noted pIC50 for O=C(O)C1CCN(C(=O)n2nnn(-c3c(Cl)cccc3Cl)c2=O)CC1 , tested on human FASN (Homo sapiens, UniProt P49327): < 5.00

Noted pIC50 for CCN(C(=O)n1nnn(-c2ccccc2Cl)c1=O)C1CCCCC1 , tested on human FASN (Homo sapiens, UniProt P49327): 5.00 to 6.00

Noted pIC50 for COc1cccc(F)c1-n1nnn(C(=O)N(c2cccc(C(=O)O)c2)C2CC2)c1=O , tested on human FASN (Homo sapiens, UniProt P49327): 6.60 to 7.22

Noted pIC50 for CN(C(=O)n1nnn(-c2c(F)cccc2F)c1=O)c1ccccc1Br , tested on human FASN (Homo sapiens, UniProt P49327): 6.60 to 7.22

Noted pIC50 for CCCN(C)C(=O)n1nnn(-c2ccccc2Cl)c1=O , tested on human FASN (Homo sapiens, UniProt P49327): < 5.00

Noted pIC50 for CCN(C(=O)n1nnn(-c2ccccc2OC)c1=O)c1ccc(C(=O)O)cc1OC , tested on human FASN (Homo sapiens, UniProt P49327): 6.60 to 7.22

---

# measured target: human FASN (Homo sapiens)
# Construct: was purified from SKBR3 cells using procedures modified from those in Jayakumar et al; endogenous in cells; host or cells: SKBR3 human breast cancer cells (ATCC); Endogenous enzyme purified by ammonium sulfate precipitation and a mono Q column
# assay info: FASN Scintillation Proximity Flashplate Assay
# Type: biochemical
# test parameters: human FASN purified from SKBR3 cells; unstarred symbols
observed property: IC50

Sample answers from the record:
CCN(C(=O)n1nnn(-c2c(F)cccc2F)c1=O)c1ccc(NS(C)(=O)=O)cc1F :: < 15 nM
CN(C)N(C(=O)n1nnn(-c2c(F)cccc2F)c1=O)C1=CCCC1 :: 15 to 100 nM
COc1cc(N(C(=O)n2nnn(-c3c(F)cccc3F)c2=O)C2CCCCC2)ccc1C(=O)O :: < 15 nM
CCOC(=O)c1cc(C)n(-c2ccc(N(C(=O)n3nnn(-c4c(F)cccc4F)c3=O)C3CCCCC3)cc2C(=O)OCc2ccccc2)n1 :: < 15 nM
CCOC(=O)c1cc(C)n(-c2ccc(N(C(=O)n3nnn(-c4c(F)cccc4F)c3=O)C3CCCCC3)cc2C(=O)O)n1 :: < 15 nM

Now look at this entry.
Lab note: CCN(C(=O)n1nnn(-c2c(Cl)cccc2Cl)c1=O)c1ccc(C(=O)O)cc1Cl gave IC50 of < 15 nM
